- SYSTEM_TESTED: Cdk6/CyclinD3 (Homo sapiens (Human))
- Sequence (Q00534 whole entry): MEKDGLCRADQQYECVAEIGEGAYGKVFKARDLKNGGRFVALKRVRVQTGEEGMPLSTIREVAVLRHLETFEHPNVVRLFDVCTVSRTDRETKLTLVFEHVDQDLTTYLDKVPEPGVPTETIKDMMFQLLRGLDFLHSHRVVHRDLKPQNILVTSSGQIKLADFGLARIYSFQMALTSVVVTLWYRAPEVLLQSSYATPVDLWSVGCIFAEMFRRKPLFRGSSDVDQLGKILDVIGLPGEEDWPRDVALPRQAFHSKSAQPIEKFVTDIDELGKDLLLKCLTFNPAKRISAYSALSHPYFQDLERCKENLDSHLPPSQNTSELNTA
- Sequence (P30281 whole entry partner): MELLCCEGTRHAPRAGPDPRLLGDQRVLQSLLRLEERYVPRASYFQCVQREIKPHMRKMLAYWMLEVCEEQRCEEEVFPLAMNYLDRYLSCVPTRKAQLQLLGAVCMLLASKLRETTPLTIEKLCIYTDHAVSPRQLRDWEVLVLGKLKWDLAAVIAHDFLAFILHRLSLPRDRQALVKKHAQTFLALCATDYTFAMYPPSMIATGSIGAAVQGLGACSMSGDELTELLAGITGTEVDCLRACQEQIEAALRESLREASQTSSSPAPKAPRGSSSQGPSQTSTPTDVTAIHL
- ASSAY_SUMMARY: Cdk6 kinase inhibition assay with recombinant Cdk6/CyclinD3, Rb substrate, [33P]-ATP filter plate
- SETUP_CONDITIONS: 25 μM ATP, read-out: Cdk 6 IC50
Give measured log10 IC50 for each item. Keep answers brief.
Hello, just confirming the data are log10 of IC50 with units of nM.

Would you kindly share the measured log10 IC50 for "OCC1(n2c3cnccc3c3cnc(Nc4ccc(N5CCNCC5)cn4)nc32)CCCC1" ?
1.40

Given the entry "Oc1cc2c3cnc(Nc4ccc(N5CCNCC5)cn4)nc3n(C3CCCC3)c2cn1" , report its measured log10 IC50.
2.34

Value lookup for log10 IC50; key = "OC1CN(C2CCN(c3ccc(Nc4ncc5c6ccncc6n(C6CCCC6)c5n4)nc3)CC2)C1"
1.08

Need log10 IC50, item "C[C@@H](O)CNc1ccc(Nc2ncc3c4ccncc4n(C4CCCC4)c3n2)nn1"
1.20

Consider the compound "c1ccc2c(c1)c1cnc(Nc3ccc(N4CCNCC4)cc3)nc1n2C1CCOCC1" and give its measured log10 IC50.
-0.12

Endpoint output: log10 IC50 of "c1cc2c3cnc(Nc4ccc(N5CCOCC5)nn4)nc3n(C3CCCC3)c2cn1" . Value?
1.39

What does the data say about its log10 IC50? Entry: "OCC(CO)NC1CCN(c2ccc(Nc3ncc4c5ccncc5n(C5CCCC5)c4n3)nn2)CC1"
0.80

Give the measured log10 IC50 of "CC1(C)CN(c2ccc(Nc3ncc4c5ccccc5n(C5CCCC5)c4n3)nn2)CCN1" .
1.53

Form field: reported log10 IC50 of "c1cnc2c(c1)c1cnc(Nc3ccc(N4CCNCC4)cn3)nc1n2C1CCCC1"
1.32

Entry "OCCNC1CCN(c2ccc(Nc3ncc4c5ccncc5n(C5CCCC5)c4n3)nn2)CC1" : reported log10 IC50 = ?
1.08

For the compound shown here, "C[C@@H](O)CNC1CCN(c2ccc(Nc3ncc4c5ccncc5n(C5CCCC5)c4n3)nc2)CC1" , give the reported log10 IC50.
1.08

I would be grateful if you could share the reported log10 IC50 for "OCCCNC1CCN(c2ccc(Nc3ncc4c5ccncc5n(C5CCCC5)c4n3)nn2)CC1" .
1.11

May I ask what log10 IC50 has been recorded for "O[C@@H]1CCN(c2ccc(Nc3ncc4c5ccccc5n(C5CCCC5)c4n3)nc2)C1" ?
1.43

What value of measured log10 IC50 is listed for "O[C@H]1CC[C@H](n2c3cnccc3c3cnc(Nc4ccc(N5CCNCC5)cn4)nc32)CC1" ?
0.77

I would be grateful if you could share the reported log10 IC50 for "COc1nccc2c3cnc(Nc4ccc(N5CCNCC5)cn4)nc3n(C3CCCC3)c12" .
1.34

If you can, please state the reported log10 IC50 value of c1ccc2c(c1)CCC2n1c2cnccc2c2cnc(Nc3ccc(N4CCNCC4)cn3)nc21 (stereo not drawn) .
1.58

I'd like to know its log10 IC50. The compound in question is "FCCNC1CCN(c2ccc(Nc3ncc4c5ccncc5n(C5CCCC5)c4n3)nc2)CC1"
1.32

// returns reported log10 IC50 for input "CN(C)C1CCN(c2ccc(Nc3ncc4c5ccncc5n(C5CCCC5)c4n3)nn2)CC1"
0.41

Need log10 IC50 of "COc1ccc2c3cnc(Nc4ccc(N5CCNCC5)cn4)nc3n(C3CCCC3)c2n1" , thanks.
1.20

Give its log10 IC50 value. Item: "c1cc2c3cnc(Nc4ccc(N5CCNCC5)cn4)nc3n(C3CCOCC3)c2cn1"
1.76

Report log10 IC50 for O[C@H]1CCN(c2ccc(Nc3ncc4c5ccnc(F)c5n(C5CCCC5)c4n3)nc2)C1 [Example 186B] please.
0.68

Please give the measured log10 IC50 for this compound: "CC(C)n1c2cnccc2c2cnc(Nc3ccc(N4CCC(N(C)C)CC4)nn3)nc21"
0.68

Look up log10 IC50 for this compound: O=S1(=O)CCC(Nc2ccc(Nc3ncc4c5ccncc5n(C5CCCC5)c4n3)nc2)C1 (stereo not drawn)
1.38

So what's the measured log10 IC50 for this one? "Cc1cc(Nc2ncc3c4ccncc4n(C4CCCC4)c3n2)cnc1N1CCNCC1"
0.62

Bench note: what log10 IC50 did "CC1(n2c3cnccc3c3cnc(Nc4ccc(N5CCNCC5)cn4)nc32)CCC1" show?
0.95

Suppose we examine the compound "c1ccc2c(c1)c1cnc(Nc3ccc(N4CCNCC4)cn3)nc1n2C1CCCC1" ; what log10 IC50 value has been reported?
0.08

Record request: log10 IC50 value, item CN(C)C1CC2CCC(C1)N2c1ccc(Nc2ncc3c4ccncc4n(C4CCCC4)c3n2)nc1 (stereo not drawn)
0.72

Dear colleague, I am looking for the recorded log10 IC50 of the following compound: "c1cc2c3cnc(Nc4ccc(N5CCNCC5)cn4)cc3n(Cc3ccsc3)c2cn1"
2.41

Can you share its log10 IC50? I mean this compound: "c1cc(-c2ccc(Nc3ncc4c5ccncc5n(C5CCCC5)c4n3)nn2)ccn1"
2.00

Param item = "COc1cc2c3cnc(Nc4ccc(N5CCNCC5)cn4)nc3n(C3CCCC3)c2nn1" ; retrieve measured log10 IC50.
2.72

Find the recorded log10 IC50 belonging to "CN(C)C1CCN(C(=O)c2ccc(Nc3ncc4c5ccncc5n(C5CCCC5)c4n3)nc2)CC1" and report it.
1.20

May I ask what log10 IC50 has been recorded for "c1cc(-c2ccc(Nc3ncc4c5ccncc5n(C5CCCC5)c4n3)nc2)ccn1" ?
1.78

Form field: reported log10 IC50 of c1cc2c3cnc(Nc4ccc(N5CCNCC5)cc4)nc3n(C3CC4CCC3C4)c2cn1 (stereo not drawn)
0.41

Values from patent US8841312B2
